Test system: human liver microsomes
Experimental Protocol: Metabolism of 20
Format: in vitro ADME
Assay Conditions: total product formation from 20(OH)D3; microsomes 1.5 mg/mL
Metric Name: Km (µM)
Write the number in µM without appending the unit.

Give Km for the following molecule: C=C1CC[C@H](O)C/C1=C/C=C1\CCC[C@@]2(C)[C@H]1CC[C@@H]2[C@@](C)(O)CCCC(C)C [20(OH)D3, 20S-Hydroxyvitamin D3]
165

Origin of values: paper PMC4821771
